System: Nitric oxide synthase 3 (Homo sapiens)
Sequence (P29474 whole entry): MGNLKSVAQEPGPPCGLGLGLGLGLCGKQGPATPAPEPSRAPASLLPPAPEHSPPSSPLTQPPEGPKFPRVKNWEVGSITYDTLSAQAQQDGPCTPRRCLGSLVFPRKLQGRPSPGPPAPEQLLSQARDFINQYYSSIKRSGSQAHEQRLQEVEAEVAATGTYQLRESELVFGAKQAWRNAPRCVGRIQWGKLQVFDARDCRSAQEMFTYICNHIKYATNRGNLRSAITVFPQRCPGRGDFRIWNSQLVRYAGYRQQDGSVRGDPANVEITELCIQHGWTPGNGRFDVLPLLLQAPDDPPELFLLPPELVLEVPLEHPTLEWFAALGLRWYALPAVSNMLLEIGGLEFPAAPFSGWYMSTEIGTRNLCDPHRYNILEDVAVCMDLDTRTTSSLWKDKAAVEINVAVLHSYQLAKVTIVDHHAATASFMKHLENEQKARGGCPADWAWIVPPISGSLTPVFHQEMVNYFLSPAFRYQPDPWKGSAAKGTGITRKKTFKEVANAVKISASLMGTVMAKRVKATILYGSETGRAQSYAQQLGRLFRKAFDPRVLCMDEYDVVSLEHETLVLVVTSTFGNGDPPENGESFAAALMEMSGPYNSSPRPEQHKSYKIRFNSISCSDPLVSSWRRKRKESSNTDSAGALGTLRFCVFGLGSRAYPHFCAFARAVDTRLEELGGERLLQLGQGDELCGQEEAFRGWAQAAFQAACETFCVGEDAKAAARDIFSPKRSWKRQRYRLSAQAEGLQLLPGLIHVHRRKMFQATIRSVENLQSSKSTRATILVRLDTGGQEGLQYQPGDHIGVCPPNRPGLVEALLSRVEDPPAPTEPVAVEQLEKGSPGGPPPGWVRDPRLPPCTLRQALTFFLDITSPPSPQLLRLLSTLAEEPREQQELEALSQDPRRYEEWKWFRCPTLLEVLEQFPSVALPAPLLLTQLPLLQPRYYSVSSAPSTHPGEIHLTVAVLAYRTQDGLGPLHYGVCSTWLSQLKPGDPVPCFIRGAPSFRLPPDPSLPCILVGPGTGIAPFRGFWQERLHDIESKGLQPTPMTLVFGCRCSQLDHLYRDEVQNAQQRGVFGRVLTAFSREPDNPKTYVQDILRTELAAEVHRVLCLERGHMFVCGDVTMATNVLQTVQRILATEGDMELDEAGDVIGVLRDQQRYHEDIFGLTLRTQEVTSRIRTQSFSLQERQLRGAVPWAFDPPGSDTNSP
Method Description: Inhibition of human eNOS using L-arginine as substrate assessed as reduction in NO production in the presence of NADPH by NO-hemoglobin capture assay
Lab note: cut-off is 7 µM. Strictly less in Ki is 1.0. Exactly 7 µM or more is 0.0.

In plain terms, does "CNCCCc1cc(C)cc(N)n1" come in under 7 µM for Ki? 1.0

Find out if reported Ki for "CNCC#Cc1cc(C)cc(N)n1" is less than 7 µM 1.0

A record lists "Cc1cc(N)nc(CCCCN(C)C)c1" . Is its Ki below 7 µM? 0.0

# strict comparison: is reported Ki < 7 µM? input = "Cc1cc(N)nc(CCCN(C)C)c1" 1.0

Report whether reported Ki is lower than 7 µM (strictly) for "Cc1cc(N)nc(C#CCN2CCN(C)CC2)c1" 0.0

In plain terms, does "Cc1cc(N)nc(CCCN2CCN(C)CC2)c1" come in under 7 µM for Ki? 0.0

I wonder whether "Cc1cc(N)nc(C#CCN2CCC(F)(F)CC2)c1" has Ki below 7 µM. Can you tell? 0.0

Field: below-cutoff. Rule: recorded Ki strictly less than 7 µM. Subject: "Cc1cc(N)nc(CCCN2CC(F)(F)C2)c1" 1.0

Given the entry "Cc1cc(N)nc(C#CCN2CC(F)(F)C2)c1" , would its reported Ki be below 7 µM? 1.0

Report whether reported Ki is lower than 7 µM (strictly) for "Cc1cc(N)nc(C#CCCN(C)C)c1" 0.0

Lab note: Ki threshold 7 µM. Does this molecule come in strictly under it? "Cc1cc(N)nc(CCCN2CCC(F)(F)CC2)c1" 0.0
